molecular target: Recombinant human KIF18A (1-467 His-tagged) protein (Homo sapiens, UniProt Q8NI77); construct: Recombinant human KIF18A (1-467 His-tagged) protein; His; test: KIF18A Enzyme Assay: microtubule-stimulated ATPase activity assay (ADP-Glo); details: 30 nM KIF18A, 30 μg/mL pig microtubules, ATP at Km 75 μM, room temperature, ADP-Glo luminescence
Sequence (Q8NI77 1-467): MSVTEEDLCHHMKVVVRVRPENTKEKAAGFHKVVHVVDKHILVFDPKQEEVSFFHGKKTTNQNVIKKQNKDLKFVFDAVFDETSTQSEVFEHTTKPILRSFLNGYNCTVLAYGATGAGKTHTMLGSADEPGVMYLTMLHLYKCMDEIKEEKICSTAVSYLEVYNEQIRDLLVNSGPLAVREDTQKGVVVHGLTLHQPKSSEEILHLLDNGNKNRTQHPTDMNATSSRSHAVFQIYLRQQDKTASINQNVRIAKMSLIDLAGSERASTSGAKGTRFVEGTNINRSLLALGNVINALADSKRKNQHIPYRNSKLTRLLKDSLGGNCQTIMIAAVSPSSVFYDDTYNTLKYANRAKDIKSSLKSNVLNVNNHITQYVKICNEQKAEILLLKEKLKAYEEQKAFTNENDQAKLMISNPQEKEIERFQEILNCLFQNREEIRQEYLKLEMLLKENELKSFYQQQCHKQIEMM
Sequence (P02550 whole entry partner): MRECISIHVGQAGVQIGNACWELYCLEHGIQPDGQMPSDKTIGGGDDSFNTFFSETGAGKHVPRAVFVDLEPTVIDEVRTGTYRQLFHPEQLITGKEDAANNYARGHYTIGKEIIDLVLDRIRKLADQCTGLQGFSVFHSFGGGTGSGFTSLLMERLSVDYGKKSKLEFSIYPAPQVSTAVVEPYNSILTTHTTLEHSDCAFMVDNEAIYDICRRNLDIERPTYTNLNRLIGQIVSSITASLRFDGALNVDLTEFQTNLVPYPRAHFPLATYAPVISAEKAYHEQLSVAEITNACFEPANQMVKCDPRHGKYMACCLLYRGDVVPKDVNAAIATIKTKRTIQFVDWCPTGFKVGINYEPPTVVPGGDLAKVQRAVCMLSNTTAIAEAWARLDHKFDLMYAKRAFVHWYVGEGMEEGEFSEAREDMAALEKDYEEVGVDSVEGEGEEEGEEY
Sequence (P02554 whole entry partner): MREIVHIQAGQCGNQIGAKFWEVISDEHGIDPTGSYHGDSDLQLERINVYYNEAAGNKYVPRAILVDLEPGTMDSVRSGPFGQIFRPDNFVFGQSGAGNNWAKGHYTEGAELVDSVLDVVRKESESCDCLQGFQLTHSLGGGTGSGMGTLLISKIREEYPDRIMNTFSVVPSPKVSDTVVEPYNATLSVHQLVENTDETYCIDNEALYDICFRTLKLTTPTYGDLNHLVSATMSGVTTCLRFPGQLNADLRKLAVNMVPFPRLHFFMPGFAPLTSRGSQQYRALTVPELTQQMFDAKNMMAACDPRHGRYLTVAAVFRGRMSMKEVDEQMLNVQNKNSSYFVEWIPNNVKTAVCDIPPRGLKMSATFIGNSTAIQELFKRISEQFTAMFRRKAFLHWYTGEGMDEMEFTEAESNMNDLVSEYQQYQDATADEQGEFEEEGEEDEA
pIC50: −log10 of the molar value.
Classification field: criterion met = pIC50 at or over 7; criterion not met = pIC50 under 7.

[
  {
    "Compound": "Cc1cc(NC(=O)c2cnc(S(=N)(=O)C3CC3)cc2N2CCC3(CC2)CC3)nc(N2CCC(F)(F)CC2)n1 (single isomer, unassigned) [Example 4-1]",
    "Label Value": "criterion not met"
  }
]

Kindly consider the entry below.
Determine whether measured pIC50 meets or exceeds 7 for Cc1cc(NC(=O)c2ccc(NC(C)(C)CO)nc2N2CCC3(CC2)CC3)nc(N2CCO[C@H](C)C2)n1 [Example 2-5]
criterion not met
